molecular target: Muscarinic acetylcholine receptors; M1 & M2 (Homo sapiens) (UniProt P11229+P08172); assay: Selectivity for muscarinic M1 receptor over muscarinic M2 receptor; format: protein assay
Readout Label: Ratio pKi

* C=C(c1ccc(S(=O)(=O)c2ccc(OC)cc2)cc1)C1CCN(C2CCN(S(=O)(=O)CCCC)CC2)CC1 | 2.18
* C=C(c1ccc(S(=O)(=O)c2ccc(OC)cc2)cc1)C1CCN(C2CCN(C(=O)OCC)CC2)CC1 | 1.77
* C=C(c1ccc(S(=O)(=O)c2ccc(OC)cc2)cc1)C1CCN(C2CCN(C(=O)CCC)CC2)CC1 | 2.04

---

target: Muscarinic acetylcholine receptors; M1 & M2 (Homo sapiens) (UniProt P11229+P08172); experiment: Selectivity for muscarinic M1 receptor over muscarinic M2 receptor; assay type: protein assay
Readout Label: Ratio pKi

Below, 5 compounds whose answers are already recorded.
- C=C(c1ccc(S(=O)(=O)c2ccc(OC)cc2)cc1)C1CCN(C2CCN(S(=O)(=O)c3ccccc3)CC2)CC1: 2.02
- C=C(c1ccc(S(=O)(=O)c2ccc(OC)cc2)cc1)C1CCN(C2CCN(C(=O)Cc3ccccc3)CC2)CC1: 1.5
- C=C(c1ccc(S(=O)(=O)c2ccc(OC)cc2)cc1)C1CCN(C2CCN(C(=O)OCCCC)CC2)CC1: 1.45
- C=C(c1ccc(S(=O)(=O)c2ccc(OC)cc2)cc1)C1CCN(C2CCN(S(=O)(=O)C(C)C)CC2)CC1: 2.3
- C=C(c1ccc(S(=O)(=O)c2ccc(OC)cc2)cc1)C1CCN(C2CCN(C(=O)C3CC3)CC2)CC1: 2.42

A = C=C(c1ccc(S(=O)(=O)c2ccc(OC)cc2)cc1)C1CCN(C2CCN(C(=O)C(C)C)CC2)CC1
B = C=C(c1ccc(S(=O)(=O)c2ccc(OC)cc2)cc1)C1CCN(C2CCNCC2)CC1
Problem: // pick min by Ratio pKi: A , B // caller expects the label of the chosen entry
Result: B

---

Target: Muscarinic acetylcholine receptor M1 (Homo sapiens, UniProt P11229)
Sequence (P11229 whole entry): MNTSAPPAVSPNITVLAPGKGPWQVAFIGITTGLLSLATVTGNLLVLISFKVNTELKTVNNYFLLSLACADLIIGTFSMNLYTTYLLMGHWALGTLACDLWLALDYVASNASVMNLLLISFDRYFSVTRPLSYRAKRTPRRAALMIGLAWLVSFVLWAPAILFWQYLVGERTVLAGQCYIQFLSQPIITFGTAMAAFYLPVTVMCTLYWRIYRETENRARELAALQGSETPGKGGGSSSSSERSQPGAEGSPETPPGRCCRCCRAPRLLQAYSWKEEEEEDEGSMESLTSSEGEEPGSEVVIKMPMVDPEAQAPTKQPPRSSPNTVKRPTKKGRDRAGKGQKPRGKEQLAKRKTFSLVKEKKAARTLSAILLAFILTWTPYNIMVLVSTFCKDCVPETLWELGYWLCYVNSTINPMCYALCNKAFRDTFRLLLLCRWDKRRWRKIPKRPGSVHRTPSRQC
Readout Label: Ki (nM)

Would you please look over these solved cases?
* C=C(c1ccc(S(=O)(=O)c2ccc(OC)cc2)cc1)C1CCN(C2CCN(S(=O)(=O)CC)CC2)CC1 | 74.5
* C=C(c1ccc(S(=O)(=O)c2ccc(OC)cc2)cc1)C1CCN(C2CCN(C(=O)OC)CC2)CC1 | 60.4
* C=C(c1ccc(S(=O)(=O)c2ccc(OC)cc2)cc1)C1CCN(C2CCN(C(=O)OCCC)CC2)CC1 | 40.7
* C=C(c1ccc(S(=O)(=O)c2ccc(OC)cc2)cc1)C1CCN(C2CCN(S(=O)(=O)Cc3ccccc3)CC2)CC1 | 33.3
* C=C(c1ccc(S(=O)(=O)c2ccc(OC)cc2)cc1)C1CCN(C2CCN(C(=O)OCC(C)C)CC2)CC1 | 10.5

a = C=C(c1ccc(S(=O)(=O)c2ccc(OC)cc2)cc1)C1CCN(C2CCN(C(=O)CC)CC2)CC1
b = C=C(c1ccc(S(=O)(=O)c2ccc(OC)cc2)cc1)C1CCN(C2CCN(C(=O)OC(C)C)CC2)CC1
Problem: Two entries are listed, a and b . Which one carries the higher Ki? // caller expects the label of the chosen entry
Result: a
(a: 60.8 nM, b: 14.8 nM)
